From: ChEMBL document CHEMBL3988442

Entries and their Percent Effect values follow.
tested_on: Shiga toxin 2 (Escherichia coli O157:H7) (UniProt P09385+P09386)
assay_notes: E. coli 0.157:H7 Shiga Toxin SOP - stx2 screening assay
Type: functional
Design: scale not given: direction of the effect not stated beside the values
experimental_parameters: 30 µM
quantity_kind: Percent Effect (%)

1) Cn1cccc1C(=O)N1CC[C@H]2C[C@@H](c3ccncn3)O[C@@H]2C1
7.29
2) Cc1cnc(N2CC3(CCN(C(=O)c4ccoc4)C3)C2)nc1
-36.5
3) CC(NCc1cccnc1)c1ccc(OCC(=O)NC2CC2)cc1 (stereo unspecified)
-1.84
4) Cn1cc(CN2C[C@@H]3COC[C@]3(COc3ccc(C#N)cn3)C2)cn1
-7.69
5) CCS(=O)(=O)N(C)C(=O)c1cc(C)n(-c2cccc(OC)c2)c1C
-4.96
6) CN(CC(=O)NC1(C#N)CCCC1)C1CCCN(c2cccnn2)C1 (stereo unspecified)
21.9
7) CN(C)c1ncc2c(n1)C1(CCN(CC3CC3)C1)COC2 (stereo unspecified)
-16.3
8) CC(C)(C)OC(=O)CNC(=O)CCc1nnc(-c2ccsc2)o1
-21.2
9) COc1ccc(OC)c(CN2CCCCCC2c2cccs2)c1 (stereo unspecified)
-16.4
10) c1cnc(NCc2ncn3c2CN(Cc2cccnc2)CCC3)nc1
-5.14
11) CC(C)NC(=O)C1CN(C(=O)c2ccc(F)cc2)CC12CCOCC2 (stereo unspecified)
-56
12) Cc1cc(C)n(CC2CCCN2C(=O)c2cnn(C)c2C2CC2)n1 (stereo unspecified)
1.91
13) Cc1ccc([C@]2(O)CC[C@H]3CN(Cc4cc(C)c(O)c(C)c4)C[C@H]32)nc1
-2.26
14) CCN(Cc1ccc(OC)c(F)c1)C(=O)c1ccc(C)[nH]c1=O
30.6
15) CN(C)S(=O)(=O)N1CCC(Oc2ccc(C#N)cc2)CC1
-1.14
16) COC(=O)c1cccn1C1CCN(C(=O)c2cc(C)ccc2O)CC1
21.2
17) Cc1cccc(NC2CCN(C(=O)Nc3cccc4[nH]ccc34)CC2)n1
-50
18) CCc1nc(C2CCCN2C(=O)c2ccc3c(c2)nnn3CC)no1 (stereo unspecified)
1.14
19) COc1ncccc1NC(=O)NCC1CCS(=O)(=O)C1 (stereo unspecified)
-1.65
20) CCc1cc(NCCc2ccc(O)cc2)n2nccc2n1
5.92
21) COC(=O)C1CCN(C(=O)CN2CCN(c3cccc(C)c3)CC2)CC1
-48.5
22) CCOCC(O)CN1CCN(C(=O)c2cccnc2OC)CC1 (stereo unspecified)
12.8
23) CN(C)C(=O)COC[C@H]1CC[C@@H]2[C@@H](CCN2Cc2ccccn2)O1
-6.42
24) Cc1nc(CN(C)C2CCN(Cc3ccc4c(c3)OCCO4)C2)no1 (stereo unspecified)
5.87
25) CS(=O)(=O)NCCNC(=O)C1(c2cccc(Cl)c2)CC1
-2.54
26) CCS(=O)(=O)N1CCC(c2nnc(Cn3cccn3)n2C2CC2)CC1
-6.14
27) COc1ncccc1C(=O)Nc1nc2c(s1)CN(S(=O)(=O)C1CC1)CC2
-20
28) CN1CCCC2(CCN(C(=O)CCn3cncn3)C2)C1=O (stereo unspecified)
27.3
29) Cc1cc(NC(=O)CN2CCc3cnc(C)nc3C2)on1
-34.7
30) Cc1ncnc(NCc2cc3n(n2)CCCN(S(C)(=O)=O)C3)c1C
12.4
31) CN(C)C1CCN(C(=O)c2ccc(Cn3ccccc3=O)o2)CC1
-10.4
32) Cc1cc(C)cc(C2(C(=O)N3CCCC(n4cncn4)C3)CC2)c1 (stereo unspecified)
26.6
33) CC(NC1(CNC(=O)CC(C)(C)C)CCOCC1)c1ccccc1 (stereo unspecified)
20.8
34) CC(C)(CNC(=O)NCCOc1cccc(F)c1)C(N)=O
28.8
35) Cc1ccn(-c2cccc(C(=O)N3CCCC(n4ccnc4C)C3)c2)n1 (stereo unspecified)
-7.17
36) Cc1nc(CN2C(=O)COC3(CCN(Cc4ccco4)CC3)C2C)cs1 (stereo unspecified)
-19.9
37) CCc1noc(CN2CCCC2c2noc(C3CC3)n2)n1 (stereo unspecified)
12.9
38) Cc1cc(-c2cnn(CCNC(=O)C3CC3)c2C2CC2)on1
64.1
39) c1ccc(CN2CC[C@]3(C[C@@H](Oc4ccccn4)CO3)C2)nc1
-36.4
40) O=C(O)c1coc(COc2cccc(F)c2)n1
-2.73
41) CCc1nccn1C1CCCN(C(=O)c2ccc(C(=O)NC)nc2)C1 (stereo unspecified)
2.77
42) CCc1nc(NCCCn2cccn2)c2c(n1)c(C)nn2C
-14.3
43) Cc1noc([C@@]23CCO[C@@H]2CCN(C(=O)C2CCOCC2)C3)n1
-4.33
44) CC(=O)N1N=C(c2ccccc2)OC1C(=O)NCCc1cccc(Cl)c1 (stereo unspecified)
19.6
45) O=C(C[C@@H]1COC[C@H]2CN(Cc3ccncc3)C[C@@H]12)N1CCOCC1
-32
46) O=C(c1cc(=O)[nH]c(=O)[nH]1)N1CCCCC1c1ccc(F)cc1 (stereo unspecified)
-12.6
